- SYSTEM_TESTED: T1, EsCas13d, nuclease-dead (Eubacterium siraeum, UniProt B0MS50, R295A;H300A;R849A;H854A)
- T1 sequence: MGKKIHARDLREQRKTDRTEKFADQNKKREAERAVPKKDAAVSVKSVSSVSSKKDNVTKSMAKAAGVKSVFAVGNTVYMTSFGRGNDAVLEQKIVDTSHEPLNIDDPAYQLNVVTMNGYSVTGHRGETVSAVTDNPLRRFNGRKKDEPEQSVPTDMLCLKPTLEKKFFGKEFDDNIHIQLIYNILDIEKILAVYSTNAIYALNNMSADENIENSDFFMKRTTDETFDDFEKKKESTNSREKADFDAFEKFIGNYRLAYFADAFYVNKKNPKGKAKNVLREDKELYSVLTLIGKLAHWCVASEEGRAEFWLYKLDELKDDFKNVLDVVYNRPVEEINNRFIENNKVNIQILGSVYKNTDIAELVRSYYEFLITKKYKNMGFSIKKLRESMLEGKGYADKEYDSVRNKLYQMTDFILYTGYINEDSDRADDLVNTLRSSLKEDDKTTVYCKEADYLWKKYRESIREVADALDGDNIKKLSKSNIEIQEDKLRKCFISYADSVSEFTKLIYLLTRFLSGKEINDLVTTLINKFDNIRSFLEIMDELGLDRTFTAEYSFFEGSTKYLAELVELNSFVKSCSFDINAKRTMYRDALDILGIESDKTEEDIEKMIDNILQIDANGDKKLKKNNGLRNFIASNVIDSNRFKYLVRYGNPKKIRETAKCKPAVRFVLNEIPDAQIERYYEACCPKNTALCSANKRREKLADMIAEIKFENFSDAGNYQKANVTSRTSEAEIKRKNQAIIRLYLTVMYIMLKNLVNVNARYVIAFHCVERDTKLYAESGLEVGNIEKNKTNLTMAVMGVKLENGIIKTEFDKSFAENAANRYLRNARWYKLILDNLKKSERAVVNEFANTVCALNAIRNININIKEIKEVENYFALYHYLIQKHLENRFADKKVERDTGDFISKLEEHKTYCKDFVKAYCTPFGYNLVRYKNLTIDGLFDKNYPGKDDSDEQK
- EXPERIMENT_SUMMARY: crRNA (strand 1, pre-loaded); Mg2+; 40 mM Tris-HCl pH 7.5, 150 mM NaCl, 6 mM MgCl2, 1 mM DTT, 0.1% Tween-20, 0.2 mg/ml BSA; 25 C; 10 min per concentration, then washed
- CONDITION_INFO: tags: His6-TwinStrep-SUMO cleaved; N-terminal SNAP kept (SNAP-Surface 488); label: 3' end held by stalled T7 RNA polymerase
MEASURED_PROPERTY: Kd (µM)
Numeric answer only, unit µM assumed.

Problem: Could you tell me which Kd is on file for target 2 MT 5'PFS CUA 3'PFS UCA (mixed) RNA 1: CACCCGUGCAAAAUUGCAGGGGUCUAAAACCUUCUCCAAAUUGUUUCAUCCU RNA 2: GGGAAUGGAUCCACAUCUACGAAUUCCUAAGGAUGAAACAAUUUGGAGAAGUCAAGAUCGGAAGAGCACACGU ?
Result: 0.00217

Problem: What do we get for target 1 insG 3' of 16,insU 3' of 13 (mixed) RNA 1: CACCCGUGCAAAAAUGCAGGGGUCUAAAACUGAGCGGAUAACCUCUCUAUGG RNA 2: GGGAAUGGAUCCACAUCUACGAAUUCGUACCAUAGAGGAGUGUUAUCCGCUCACCGAGAUCGGAAGAGCACACGU ?
Result: 0.0232

Problem: What do we get for target 1 MT 5'PFS GGA 3'PFS ACA (mixed) RNA 1: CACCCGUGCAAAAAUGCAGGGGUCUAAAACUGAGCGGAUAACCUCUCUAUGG RNA 2: GGGAAUGGAUCCACAUCUACGAAUUCGGACCAUAGAGAGGUUAUCCGCUCAACAAGAUCGGAAGAGCACACGU ?
Result: 0.027

Problem: What do we get for target 1 insA 3' of 22,insC 3' of 15 (mixed) RNA 1: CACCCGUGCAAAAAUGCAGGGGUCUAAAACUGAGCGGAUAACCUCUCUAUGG RNA 2: GGGAAUGGAUCCACAUCUACGAAUUCGUACACAUAGAGCAGGUUAUCCGCUCACCGAGAUCGGAAGAGCACACGU ?
Result: 0.0285
